Data credit: ChEMBL document CHEMBL4715854

- assayComment: Metabolic stability in rat plasma assessed as parent compound remaining at 1 uM incubated for 60 mins by HPLC/MS analysis
- Format: ADME, cell-free
- details: read-out: Stabilty
metric: remaining at 1 h, 1 µM (%)
Please state the figure in %; there is no need to write the unit.

remaining at 1 h, 1 µM for N#Cc1ccc(NC(=O)N2CCCc3ccc(C=O)nc32)nc1 ?
100

* * *

- assayComment: Cmax in mouse xenografted with human Huh-7 cells at 6 mg/kg, po qd administered for 8 days
- Format: ADME, organism-based
- Set-up: route oral, dose 6 mg/kg, time 8 day
- details: in vivo
metric: Cmax

Please look up its Cmax: COCCOc1cc(NC(=O)N2CCCc3cc(CN4CCN(C)CC4=O)c(C=O)nc32)ncc1C#N
770 nM

* * *

- assayComment: Clearance in rat liver microsome at 10 mM measured after 15 mins in presence of NADPH by LC-MS analysis
- Type: ADME
- details: liver microsomes, read-out: CLH
metric: microsomal CLint at […], 10000 µM (µL/min/mg)
Provide the reading as a plain figure in µL/min/mg.

Please give the measured microsomal CLint at […], 10000 µM for this compound: COCCOc1cc(NC(=O)N2CCCc3cc(CN4CCN(C)CC4=O)c(C=O)nc32)ncc1C#N
18

* * *

- assayComment: Cmax in mouse xenografted with human Huh-7 cells at 3 mg/kg, po BID administered for 8 days
- Assay type: ADME, organism-based
- Set-up: route oral, time 8 day, dose 3 mg/kg
- details: in vivo
metric: Cmax (nM)
Numeric answer only, unit nM assumed.

# Cmax lookup, item COCCOc1cc(NC(=O)N2CCCc3cc(CN4CCN(C)CC4=O)c(C=O)nc32)ncc1C#N
180

* * *

- assayComment: Oral bioavailability in Crl:CD (SD) rat at 3 mg/kg administered as nanosuspension formulated in CMC-5/Tween 80 measured up to 24 hrs by LC-MS/MS analysis
- Assay type: ADME, organism-based
- details: in vivo
metric: bioavailability (%)
Write the value in % as a bare number.

# query: bioavailability of entry COCCNc1cc(NC(=O)N2CCCc3cc(C(F)F)c(C=O)nc32)ncc1C#N
80

* * *

- assayComment: Oral bioavailability in Crl:CD (SD) rat at 3 mg/kg measured upto 24 hrs by LC-MS/MS analysis
- Format: ADME, organism-based
- details: Crl:CD (SD), in vivo
Tick TRUE if bioavailability is 20% or greater. Tick FALSE if bioavailability is less than 20%.

Solved entries (count: 4):
Given the entry COCCOc1cc(NC(=O)N2CCCc3cc(CO)c(C=O)nc32)ncc1C#N , answer whether its bioavailability meets or surpasses 20%.
TRUE

Same for CC(C)Oc1cc(NC(=O)N2CCCc3cc(CN4CCCC4=O)c(C=O)nc32)ncc1C#N
TRUE

What about this compound? COCCNc1cc(NC(=O)N2CCCc3cc(CN(C)C(C)=O)c(C=O)nc32)ncc1C#N
TRUE

Now consider COCCNc1cc(NC(=O)N2CCCc3cc(-c4cnc(C)s4)c(C=O)nc32)ncc1C#N and answer again.
TRUE

More entries:
Hi team, for COCCNc1cc(NC(=O)N2CCCc3cc(C(F)F)c(C=O)nc32)ncc1C#N , is the recorded bioavailability at or above 20%?
FALSE

* * *

Readings of Vd for the listed compounds
- assayComment: Volume of distribution at steady state in Beagle dog at 0.1 mg/kg, iv or 0.3 mg/kg, po by LC-MS/MS analysis
- Assay type: ADME, organism-based, Canis lupus familiaris
- details: in vivo, read-out: Vdss
Give the value in L/kg but do not write L/kg after it.

Query (compound): COCCOc1cc(NC(=O)N2CCCc3cc(CN4CCN(C)CC4=O)c(C=O)nc32)ncc1C#N ; field requested: Vd
3

Same for CC(C)Oc1cc(NC(=O)N2CCCc3cc(CN4CCCC4=O)c(C=O)nc32)ncc1C#N
1.1
